# maps each entry to its pKd
- Study System: human keratin (human)
- Experiment Summary: batch affinity chromatography, peptide on Toyopearl resin, human keratin in solution, Langmuir fit
Bridges are numbered along the chain shown (N, C = ends). Where no end group is shown, it is not given here.
Just so you know, pKd here is -log10 of the concentration in molar units; reply with that number alone.

Known results for binders:
Binder | Measured Result
ACTSTGRNACG (disulfide 2-10 (inferred)) [SP7-4 (…)] | 4.80
ACSATLQHSCG (disulfide 2-10 (inferred)) [SP7-1 (…)] | 5.10
ACTGSTQHQCG (disulfide 2-10 (inferred)) [SPACE™ peptide (…)] | 4.97
ACSASTNHNCG (disulfide 2-10 (inferred)) [SP7-5 (…)] | 5.00
ACLSVNHNACG (disulfide 2-10 (inferred)) [SP7-3 (…)] | 5.03

Next binder, please.
Query: pKd for ACSLTVNWNCG (disulfide 2-10 (inferred)) [SP7-2 (…)] ?
Reply: 5.06
